experimental_details: Thermogravimetric analysis of the quantity of additive encapsulated in microporous or mesoporous material
test_context: MIL-88 A (Al) MOF, in-situ encapsulation in one single step (Example 4)
measure: % Encapsulated (g additive/g dry solid) × 100 (%)

- compound: "CC(C)=CCC/C(C)=C/CO [Geraniol, geraniol]"
  observed_measurement: 10.9
- compound: "CC(C)=CCCC(C)CC(=O)O (stereo not shown) [Citronellic acid, citronellic acid]"
  observed_measurement: 12.2

I. CC(C)=CCC/C(C)=C/C(=O)O [Geranic acid, geranic acid]
II. CCCCN(CCC(=O)OCC)C(C)=O [IR3535, ethyl 3-[acetyl(butyl)amino]propanoate]
Please let me know which one, I or II , has a lower measured % Encapsulated (g additive/g dry solid) × 100 value. Identify your selection by its label. I
